Entries and their relative viability
Test system: NCI-H322M
Experiment: relative viability (nuclei count vs DMSO), 5 days (fraction); higher = more cells survive
Settings: first compound 8 µM

{"compound": "O=c1[nH]c2ccccc2n1C1CCN(CCCC(c2ccc(F)cc2)c2ccc(F)cc2)CC1 [Pimozide] + NC(=O)Nc1cc(-c2cccc(F)c2)sc1C(=O)N[C@H]1CCCNC1 [AZD7762] (partner 0.2 µM)", "relative viability": 0.387}
{"compound": "O=c1[nH]c2ccccc2n1C1CCN(CCCC(c2ccc(F)cc2)c2ccc(F)cc2)CC1 [Pimozide] + CC(=O)Nc1cccc(-n2c(=O)n(C3CC3)c(=O)c3c(Nc4ccc(I)cc4F)n(C)c(=O)c(C)c32)c1 [Trametinib] (partner 0.02 µM)", "relative viability": 0.54}
{"compound": "O=c1[nH]c2ccccc2n1C1CCN(CCCC(c2ccc(F)cc2)c2ccc(F)cc2)CC1 [Pimozide] + CS(=O)(=O)N1CCN(Cc2cc3nc(-c4cccc5[nH]ncc45)nc(N4CCOCC4)c3s2)CC1 [Pictilisib] (partner 1 µM)", "relative viability": 0.382}
{"compound": "O=c1[nH]c2ccccc2n1C1CCN(CCCC(c2ccc(F)cc2)c2ccc(F)cc2)CC1 [Pimozide] + COc1cc2c(Oc3ccc(NC(=O)C4(C(=O)Nc5ccc(F)cc5)CC4)cc3F)ccnc2cc1OCCCN1CCOCC1 [Foretinib] (partner 0.25 µM)", "relative viability": 0.844}

----------
Measured relative viability of individual entries
Test system: NCI-H1651
Experiment: relative viability (nuclei count vs DMSO), 5 days (fraction); higher = more cells survive
Details: first compound 0.1581 µM
propertyMeasured: relative viability

{"compound": "COc1cc2nccc(Oc3ccc(NC(=O)Nc4cc(C)on4)c(Cl)c3)c2cc1OC [Tivozanib] + CC(=O)Nc1cccc(-n2c(=O)n(C3CC3)c(=O)c3c(Nc4ccc(I)cc4F)n(C)c(=O)c(C)c32)c1 [Trametinib] (partner 0.02 µM)", "propertyMeasured": "relative viability", "quantitativeReadout": 0.866}
{"compound": "Nc1ccn([C@@H]2O[C@H](CO)[C@@H](O)[C@@H]2O)c(=O)n1 [Cytarabine] + Cc1nc(Nc2ncc(C(=O)Nc3c(C)cccc3Cl)s2)cc(N2CCN(CCO)CC2)n1 [Dasatinib] (partner 0.075 µM)", "propertyMeasured": "relative viability", "quantitativeReadout": 0.179}
{"compound": "COc1cc2nccc(Oc3ccc(NC(=O)Nc4cc(C)on4)c(Cl)c3)c2cc1OC [Tivozanib] + C[C@]1(O)C[C@@H](c2nc(-c3ccc4ccc(-c5ccccc5)nc4c3)c3c(N)nccn32)C1 [Linsitinib] (partner 1 µM)", "propertyMeasured": "relative viability", "quantitativeReadout": 0.949}
{"compound": "COc1cc2nccc(Oc3ccc(NC(=O)Nc4cc(C)on4)c(Cl)c3)c2cc1OC [Tivozanib] + O=C(CCCCCCC(=O)Nc1ccccc1)NO [Vorinostat] (partner 1 µM)", "propertyMeasured": "relative viability", "quantitativeReadout": 0.519}

----------
Test system: NCI-H1648
Test: relative viability (nuclei count vs DMSO), 5 days (fraction); higher = more cells survive
Conditions: first compound 0.253 µM

{"compound": "Cc1cnc(-c2cnc(NCCNc3ccc(C#N)cn3)nc2-c2ccc(Cl)cc2Cl)[nH]1 + COc1cccc2cc(-c3nc([C@H]4CC[C@H](C(=O)O)CC4)n4ncnc(N)c34)[nH]c12 [OSI-027] (partner 0.5 µM)", "relative viability": 0.259}
{"compound": "Cc1cnc(-c2cnc(NCCNc3ccc(C#N)cn3)nc2-c2ccc(Cl)cc2Cl)[nH]1 + NC(=O)Nc1cc(-c2cccc(F)c2)sc1C(=O)N[C@H]1CCCNC1 [AZD7762] (partner 0.2 µM)", "relative viability": 0.579}
{"compound": "Cc1cnc(-c2cnc(NCCNc3ccc(C#N)cn3)nc2-c2ccc(Cl)cc2Cl)[nH]1 + CC(=O)Nc1cccc(-n2c(=O)n(C3CC3)c(=O)c3c(Nc4ccc(I)cc4F)n(C)c(=O)c(C)c32)c1 [Trametinib] (partner 0.02 µM)", "relative viability": 0.381}
{"compound": "O=c1[nH]c2ccccc2n1C1CCN(CCCC(c2ccc(F)cc2)c2ccc(F)cc2)CC1 [Pimozide] + Cc1cc(Nc2cc(N3CCN(C)CC3)nc(Sc3ccc(NC(=O)C4CC4)cc3)n2)n[nH]1 [Tozasertib] (partner 0.1 µM)", "relative viability": 0.398}
{"compound": "Cc1cnc(-c2cnc(NCCNc3ccc(C#N)cn3)nc2-c2ccc(Cl)cc2Cl)[nH]1 + Nc1nc2[nH]cc(CCc3ccc(C(=O)N[C@@H](CCC(=O)O)C(=O)O)cc3)c2c(=O)[nH]1 [Pemetrexed] (partner 0.2 µM)", "relative viability": 0.723}
